Molecular target: human CTLA4 antibody containing human κ light chain subgroup 3 (Vκ3) (manufactured by R&D Systems)
Assay: ELISA; antibody immobilised (10 ug/mL), binding protein at 50 ug/mL, Anti-6-His detection, blank-subtracted
ASSAY_METRIC: Polyclonal antibody-binding activity (abs@450 nm)

>>> quantitative_readout("FpL_C4KR (designed binder) ETPEEPREEVTIRVNLIFADGRTQTAEFRGTFEEATAEAYRYADLLARVNGEYTADLEDGGYTINIRFAGHHHHHH")
0.66

[1] FpL_C3KX 4h (designed binder) ETPEEPAEEVTIRVNLIFADGQIQTAEFIGTFEEATARAYAYANLLARDYGGYTADLEDGGYTINIRFAGHHHHHH
[2] FpL_C3KR (designed binder) ETPEEPREEVTIRVNLIFADGRIQTAEFRGTFEEATARAYAYANLLARENGEYTADLEDGGNTINIRFAGHHHHHH
[3] FpL_C3KX 3a (designed binder) ETPEEPAEEVTIRVNLIFADGQIQTAEFIGTFEEATARAYAYANLLAREYGGYTADLEDGGYTINIRFAGHHHHHH
Arrange these 3 binders in increasing order of Polyclonal antibody-binding activity (abs@450 nm). Lab note: final answer is the ordered label list.
3, 2, 1
(3: 0.21 abs@450 nm, 2: 0.32 abs@450 nm, 1: 0.63 abs@450 nm)
